System: T-47D cells
experimentSummary: Caspase cascade activation (N-(Ac-DEVD)-N'-ethoxycarbonyl-R110 fluorogenic substrate) in T-47D cells
Assay type: cell-based, Human
particulars: caspase activity: ratio of net RFU of test compound to control, 48 h incubation
// T47 Ratio 48 hr lookup, one value per entry
Just the number.

>  <structure>
COc1cccc(Nc2cc(-c3ccccn3)nc(-c3ccccn3)n2)c1

>  <system>
T-47D cells

>  <T47 Ratio 48 hr>
3.9

$$$$
>  <structure>
Cc1cc(Nc2cc(C(F)(F)F)nc(-c3cccnc3)n2)cc(C(F)(F)F)c1

>  <system>
T-47D cells

>  <T47 Ratio 48 hr>
1.4

$$$$
>  <structure>
COc1ccc(C)c(Nc2cc(C(F)(F)F)nc(-c3cnccn3)n2)c1

>  <system>
T-47D cells

>  <T47 Ratio 48 hr>
8.5

$$$$
>  <structure>
FC(F)(F)c1cc(Nc2cccc(Oc3ccccc3)c2)nc(-c2cccnc2)n1

>  <system>
T-47D cells

>  <T47 Ratio 48 hr>
1.5

$$$$
>  <structure>
COc1cccc(Nc2cc(C(F)(F)F)nc(-c3ccccn3)n2)c1

>  <system>
T-47D cells

>  <T47 Ratio 48 hr>
29.3

$$$$
>  <structure>
O=[N+]([O-])c1cccc(-c2cccc(Nc3cc(C(F)(F)F)nc(-c4cccnc4)n3)c2)c1

>  <system>
T-47D cells

>  <T47 Ratio 48 hr>
1.8

$$$$
>  <structure>
COCc1cc(Nc2cc(OC)ccc2OC)nc(-c2csc(C)n2)n1

>  <system>
T-47D cells

>  <T47 Ratio 48 hr>
21.6

$$$$
>  <structure>
COc1ccc(C)c(Nc2cc(C(F)(F)F)nc(-c3cccnc3)n2)c1

>  <system>
T-47D cells

>  <T47 Ratio 48 hr>
11

$$$$
>  <structure>
COc1ccc(Cl)c(Nc2cc(C(F)(F)F)nc(-c3ccncc3)n2)c1

>  <system>
T-47D cells

>  <T47 Ratio 48 hr>
10.5

$$$$
>  <structure>
Cc1cc(Nc2cc(C(F)(F)F)nc(-c3ccncc3)n2)c(C)cc1O

>  <system>
T-47D cells

>  <T47 Ratio 48 hr>
16.0

$$$$

Record `COc1cc(C)c(Nc2cc(C(F)(F)F)nc(-c3ccncc3)n2)cc1OC.Cl` , field T47 Ratio 48 hr: 6.1

For `Cc1cc(Nc2cc(C(F)(F)F)nc(-c3cccnc3)n2)c(C)cc1O` the molecule record lists T47 Ratio 48 hr as 15.7

// T47 Ratio 48 hr value for `COc1cc(Nc2cc(C(F)(F)F)nc(-c3ccccn3)n2)c(OC)cc1Cl.Cl` : 11.0

Entry `CCOc1ccc(OCC)c(Nc2cc(C(F)(F)F)nc(-c3cccnc3)n2)c1` , T47 Ratio 48 hr reported as 8.0

Record summary for `COc1ccc(Cl)c(Nc2cc(C(F)(F)F)nc(-c3cc(Cl)nc(Cl)c3)n2)c1` : reported T47 Ratio 48 hr = 1.3

The reported value for `COc1cc(C)c(Nc2cc(C(F)(F)F)nc(-c3ccccn3)n2)cc1OC.Cl` in terms of T47 Ratio 48 hr is 14.6

====

In this section, each of the compounds is paired with its reported T47 Ratio 48 hr.
Test system: T-47D cells
experimentSummary: Caspase cascade activation (N-(Ac-DEVD)-N'-ethoxycarbonyl-R110 fluorogenic substrate) in T-47D cells
Format: cell-based, Human
particulars: caspase activity: ratio of net RFU of test compound to control, 48 h incubation
Form rule: numeric answer, no unit written next to it.

Look over these answered cases.
>  <compound>
COc1cccc(Nc2cc(N3CCOCC3)nc(-c3ccccc3)n2)c1

>  <T47 Ratio 48 hr>
1.5

$$$$
>  <compound>
COc1cccc(Nc2cc(C(F)(F)F)nc(-c3cccnc3)n2)c1

>  <T47 Ratio 48 hr>
16.7

$$$$
>  <compound>
Cc1ccc(Cl)c(Nc2cc(C(F)(F)F)nc(-c3cccnc3)n2)c1

>  <T47 Ratio 48 hr>
21.2

$$$$
>  <compound>
COc1ccc(C)cc1Nc1cc(C(F)(F)F)nc(-c2ccncc2)n1

>  <T47 Ratio 48 hr>
13.7

$$$$
>  <compound>
Cc1nccc(-c2cccc(Nc3cc(C(F)(F)F)nc(-c4cccnc4)n3)c2)n1

>  <T47 Ratio 48 hr>
1.6

$$$$
>  <compound>
COc1ccc(C)c(Nc2cc(-c3ccccn3)nc(-c3ccccn3)n2)c1

>  <T47 Ratio 48 hr>
4.0

$$$$
>  <compound>
COc1cc(Nc2cc(C(F)(F)F)nc(-c3ccncc3)n2)c(OC)cc1Cl.Cl

>  <T47 Ratio 48 hr>
9.5

$$$$
>  <compound>
COc1cccc(Nc2nc(-c3ccccn3)ncc2OC)c1

>  <T47 Ratio 48 hr>
1.9

$$$$

get_value(item= `Oc1ccc(Cl)c(Nc2cc(C(F)(F)F)nc(-c3ccncc3)n2)c1` , readout=T47 Ratio 48 hr) returns 8.0

Query `COc1cccc(Nc2nc(-c3ccc(C(F)(F)F)cn3)nc(C)c2Cl)c1` yields T47 Ratio 48 hr of 2.5

====

Test system: T-47D cells
experimentSummary: Caspase cascade activation (N-(Ac-DEVD)-N'-ethoxycarbonyl-R110 fluorogenic substrate) in T-47D cells
Type: cell-based, Human
particulars: caspase activity: ratio of net RFU of test compound to control, 48 h incubation
Let's look at some compounds and their measured T47 Ratio 48 hr.
Respond using a number only.

Solved entries:
>  <structure>
Cc1ccc(O)cc1Nc1cc(C(F)(F)F)nc(-c2ccccn2)n1

>  <T47 Ratio 48 hr>
3.6

$$$$
>  <structure>
Oc1ccc(Cl)c(Nc2cc(C(F)(F)F)nc(-c3cccnc3)n2)c1

>  <T47 Ratio 48 hr>
9.0

$$$$
>  <structure>
COc1ccc(OC)c(Nc2cc(C)nc(-c3ccccn3)n2)c1

>  <T47 Ratio 48 hr>
15.5

$$$$
>  <structure>
Cc1cc2cc(Nc3cc(C(F)(F)F)nc(-c4cccnc4)n3)ccc2[nH]1

>  <T47 Ratio 48 hr>
14.1

$$$$

Record `COc1ccc(C)c(Nc2cc(C)nc(-c3ccccn3)n2)c1` . Reported T47 Ratio 48 hr: 20.4

Documented T47 Ratio 48 hr of `COc1cc(Nc2cc(C(F)(F)F)nc(-c3cnccn3)n2)c(OC)cc1Cl.Cl` : 12.0

Item: `COc1ccc(OC)c(Nc2cc(C(F)(F)F)nc(-c3ccncc3)n2)c1` | T47 Ratio 48 hr: 5.8

The reported value for `COc1ccc(Cl)c(Nc2cc(C)nc(N3CCOCC3)n2)c1` in terms of T47 Ratio 48 hr is 1.2

T47 Ratio 48 hr for `Cc1ccc(N)cc1Nc1cc(C(F)(F)F)nc(-c2cccnc2)n1.Cl` is 11.7

====

Tested on: T-47D cells
experimentSummary: Caspase cascade activation (N-(Ac-DEVD)-N'-ethoxycarbonyl-R110 fluorogenic substrate) in T-47D cells
Type: cell-based, Human
particulars: caspase activity: ratio of net RFU of test compound to control, 48 h incubation
Response field class: enum, chosen by comparing T47 Ratio 48 hr against low group: < 4; middle group: ≥ 4 and < 10; high group: ≥ 10

>  <molecule>
CSc1cccc(Nc2cc(C(F)(F)F)nc(-c3ccccn3)n2)c1 [Example 96]

>  <label>
low group

$$$$
>  <molecule>
COc1ccc(Nc2cc(C(F)(F)F)nc(-c3cccnc3)n2)c(OC)n1 [Example 206]

>  <label>
middle group

$$$$
>  <molecule>
Cc1ccc(C)c(Nc2cc(-c3ccccn3)nc(-c3ccccn3)n2)c1 [Example 114]

>  <label>
low group

$$$$

Query string: Bin this entry: COc1ccc(Cl)c(Nc2cc(-c3ccccn3)nc(-c3ccccn3)n2)c1.Cl [Example 113]
Result string: middle group

Query string: # bin lookup: classify Cl.Oc1cccc(Nc2cc(C(F)(F)F)nc(-c3cccnc3)n2)c1 [Example 97] by its T47 Ratio 48 hr
Result string: high group

Query string: Input Cc1ccc(C)c(Nc2cc(C(F)(F)F)nc(-c3cnccn3)n2)c1 [Example 196] ; output its category
Result string: high group

Query string: Lab log: COc1cc(Nc2cc(C(F)(F)F)nc(-c3cccnc3)n2)cc(OC)c1.Cl [Example 122] — assign T47 Ratio 48 hr category
Result string: high group

Query string: Form: Item = COCc1cc(Nc2cccc(OC)c2)nc(-c2csc(C)n2)n1 [Example 44] ; Class = ?
Result string: low group

Query string: Class? Entry: COc1ccc(Br)cc1Nc1cc(C(F)(F)F)nc(-c2cccnc2)n1 [Example 126]
Result string: high group

Query string: Which band does Cl.Oc1cccc(Nc2cc(C(F)(F)F)nc(-c3ccccn3)n2)c1 [Example 69] fall in?
Result string: high group

Query string: Any idea which band COc1ccc(Nc2cc(C)nc(-c3ccccn3)n2)cc1OC [Example 176] is in?
Result string: middle group

Query string: Would you mind sorting COc1cc(Nc2cc(C(F)(F)F)nc(-c3cccnc3)n2)c(C(C)=O)cc1OC [Example 134] into the appropriate category?
Result string: high group
